Data provenance is PubChem BioAssay (EPA / NIEHS).

assay: BSK_CASM3C_Proliferation: Cell Proliferation Assessment in the BioMAP Diversity Plus: CASM3C Assay (AID 2283047); conditions: primary human coronary artery smooth muscle cells;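 note: sulforhodamine B total protein stain as relative cell number at 560 nm; sub-confluent cells exposed 48 h before staining; fitted both ways against DMSO so gain or loss of cell number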
Calls of active or inactive are those of the source. Rule for the calls: active = hit-call score of the fitted dose curve at least 0.9, where 1 is the maximum; inactive = score below 0.9.
Just give me one of these, please: active, inactive

Worked examples, 4 molecules total:
O=c1[nH]c2ccc(S(=O)CCN3CCC(Cc4ccc(F)cc4)CC3)cc2o1 (stereo unspecified) : inactive
Nc1nc2ncc(CNc3ccc(C(=O)N[C@@H](CCC(=O)O)C(=O)O)cc3)nc2c(=O)[nH]1 : inactive
CC(=O)OCCC(C)C : inactive
CCOc1cccc(-n2cc(C(=O)N3CCN(c4cc(C(=O)O)c5ccccc5c4)CC3)nc2-c2ccc(C)cc2)c1 : active

Q. Status in this test for C=CC(=C)CCC=C(C)C ?
A. inactive

Q. Status in this test for CC(C)=CCC/C(C)=C/CO ?
A. inactive

Q. Status in this test for O=C1CCC(N2C(=O)c3ccccc3C2=O)C(=O)N1 (stereo unspecified) ?
A. inactive

====

assay: BSK_4H_SRB: Viability Assessment in the BioMAP Diversity Plus: 4H Assay (AID 2283027); conditions: primary human endothelial cells (HUVEC);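 note: cells exposed to compound for 24 h before staining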
Activity calls are given as the source filed them. How the source made its calls: active means hit-call score of the fitted dose curve at least 0.9, where 1 is the maximum; inactive means score below 0.9.
Just give me one of these, please: active, inactive

Worked examples, 3 molecules total:
CCCCC(CC)COC(=O)c1ccc(C(=O)OCC(CC)CCCC)cc1 (stereo unspecified) : inactive
CC(C)c1cccc(C(C)C)c1N1C(=O)c2ccc(O)cc2C1=O : active
CC(=O)OCCC(C)C : inactive

Q. Status in this test for Cc1c(-c2cccnc2)c2ccccc2n1CCCCC(=O)O ?
A. inactive

Q. Status in this test for Cc1ccc(C)c(O)c1 ?
A. inactive

Q. Status in this test for CC1=CC(=O)CC(C)(C)C1 ?
A. inactive

====

target: human Peroxisome Proliferator-activated Receptor alpha (PPARa), PPARA (gene 5465) (UniProt Q07869); assay: NVS_NR_hPPARa: NovaScreen (NVS) Nuclear Receptor Binding Assay for human Peroxisome Proliferator-activated Receptor alpha (PPARa) (AID 2283359);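 note: activity means loss of TR-FRET signal versus DMSO baseline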
Sequence (Q07869 whole entry, looked up): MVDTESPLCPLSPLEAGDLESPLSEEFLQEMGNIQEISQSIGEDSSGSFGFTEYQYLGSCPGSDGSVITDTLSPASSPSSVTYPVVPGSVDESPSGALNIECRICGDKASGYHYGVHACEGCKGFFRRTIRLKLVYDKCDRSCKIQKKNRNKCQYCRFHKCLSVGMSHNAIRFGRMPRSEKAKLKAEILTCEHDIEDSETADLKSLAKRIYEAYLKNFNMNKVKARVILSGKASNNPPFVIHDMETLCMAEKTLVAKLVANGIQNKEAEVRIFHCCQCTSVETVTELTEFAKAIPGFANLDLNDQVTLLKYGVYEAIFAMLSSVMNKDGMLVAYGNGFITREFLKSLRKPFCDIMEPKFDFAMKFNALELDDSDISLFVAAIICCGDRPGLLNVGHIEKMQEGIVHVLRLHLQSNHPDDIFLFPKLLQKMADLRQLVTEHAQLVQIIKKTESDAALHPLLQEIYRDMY
Inconclusive results are not listed. Calls of active or inactive are those of the source. How the source made its calls: active means hit-call score of the fitted dose curve at least 0.9, where 1 is the maximum; inconclusive means response in the unintended direction; inactive means score below 0.9.
Just give me one of these, please: 1 (yes) = active, 0 (no) = inactive

Worked examples, 5 compounds total:
Nc1ccc(Nc2ccccc2)cc1 : 1 (yes)
CCCCC(CC)COC(=O)c1ccc(C(=O)OCC(CC)CCCC)cc1 (stereo unspecified) : 1 (yes)
CCc1cc(SCc2sc(-c3ccc(C(F)(F)F)cc3)nc2CN2CCN(c3ccc(OC)cc3)CC2)ccc1OCC(=O)O : 1 (yes)
Cc1ccc(N)cc1O : 0 (no)
CCOc1cccc(-n2cc(C(=O)N3CCN(c4cc(C(=O)O)c5ccccc5c4)CC3)nc2-c2ccc(C)cc2)c1 : 0 (no)

Q. Status in this test for Fc1ccccc1[C@@H](F)COC1CCC(Nc2ncnc3[nH]ncc23)CC1 (stereo partly specified) ?
A. 0 (no)

Q. Status in this test for CNS(=O)(=O)c1cc(C(=O)N2CCC(CCN3C4CCC3CC(n3c(C)nc5ccccc53)C4)(c3cccc(F)c3)CC2)c(Cl)cc1F (stereo unspecified) ?
A. 0 (no)

Q. Status in this test for CCCCCCCCCCCCCCCO ?
A. 0 (no)

Q. Status in this test for CCCCCCc1ccc(O)cc1O ?
A. 0 (no)

Q. Status in this test for CCOC(=O)COc1ccc2c(c1)CC(NCC(O)c1cccc(Cl)c1)CC2 (stereo unspecified) ?
A. 0 (no)

Q. Status in this test for Cn1cnc([N+](=O)[O-])c1Sc1ncnc2nc[nH]c12 ?
A. 0 (no)
